Each recorded value in this set is attributed to patent US20260248946A1.

Tested on: T1, human CD79B on the surface of cells (DoHH2 / DOHH-2, WSU-DLCL2) (human, UniProt P40259 29-229)
T1 sequence (looked up): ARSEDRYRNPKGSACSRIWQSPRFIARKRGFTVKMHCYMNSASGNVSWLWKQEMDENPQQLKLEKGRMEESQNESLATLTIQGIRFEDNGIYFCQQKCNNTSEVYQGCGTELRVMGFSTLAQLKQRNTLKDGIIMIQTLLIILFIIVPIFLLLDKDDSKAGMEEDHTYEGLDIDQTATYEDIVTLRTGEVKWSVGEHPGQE
Protocol notes: cell-based or functional assay
Collected Endocytosis rate (4 h), DoHH2 cells values appear next to each entry.
All answers are understood in %, so give the number only.

Please review the following examples before continuing.
Binder	Scale unit	Endocytosis rate (4 h), DoHH2 cells
ADC-4 (antibody, human IgG1, kappa, V domains shown, compound C coupled to cysteines after TCEP reduction; positions not given; compound C (linker-drug) coupled to cysteines after TCEP reduction; positions not given; mean n=4.52 per antibody, Antibody-drug conjugate of hAb015-10; DAR 4.52; also called hAb015-10-cys-C) VH: EVQLVQSGAEVKKPGSSVKVSCKASGSSFSSYGINWVKQAPGQGLEWIGEIFPRSGNTYYNEKFEGRATLTADKSTSTAYMELRSLRSEDTAVYYCAKGDLGDFDYWGQGTTVTVSS VL: DFVMTQTPLSLPVTPGEPASISCRSSQSIVHSDGNTYFEWYLQKPGQSPKLLIYKVSNRFSGVPDRFSGSGSGTDFTLKISRVEAEDVGVYYCFQGSHVPWTFGGGTKVEIKR	%	81
ADC-5 (antibody, human IgG1, kappa, V domains shown, compound D coupled to cysteines after TCEP reduction; positions not given; compound D (exatecan-type linker-drug, Topo I inhibitor) coupled to cysteines after TCEP reduction; positions not given; mean n=1.81 per antibody, Antibody-drug conjugate of hAb015-10; also called HAB015-10-cys-D, with a DAR value of about 2) VH: EVQLVQSGAEVKKPGSSVKVSCKASGSSFSSYGINWVKQAPGQGLEWIGEIFPRSGNTYYNEKFEGRATLTADKSTSTAYMELRSLRSEDTAVYYCAKGDLGDFDYWGQGTTVTVSS VL: DFVMTQTPLSLPVTPGEPASISCRSSQSIVHSDGNTYFEWYLQKPGQSPKLLIYKVSNRFSGVPDRFSGSGSGTDFTLKISRVEAEDVGVYYCFQGSHVPWTFGGGTKVEIKR	%	76
ADC-8 (antibody, human IgG1, kappa, V domains shown, MC-VC-PAB-MMAE coupled to cysteines after TCEP reduction; positions not given; MC-VC-PAB-MMAE coupled to cysteines after TCEP reduction; positions not given; mean n=3.59 per antibody) VH: EVQLVESGGGLVQPGGSLRLSCAASGYTFSSYWIEWVRQAPGKGLEWIGEILPGGGDTNYNEIFKGRATFSADTSKNTAYLQMNSLRAEDTAVYYCTRRVPIRLDYWGQGTLVTVSS VL: DIQLTQSPSSLSASVGDRVTITCKASQSVDYEGDSFLNWYQQKPGKAPKLLIYAASNLESGVPSRFSGSGSGTDFTLTISSLQPEDFATYYCQQSNEDPLTFGQGTKVEIKR	%	76
ADC-6 (antibody, human IgG1, kappa, V domains shown, compound D coupled to cysteines after TCEP reduction; positions not given; compound D (exatecan-type linker-drug, Topo I inhibitor) coupled to cysteines after TCEP reduction; positions not given; mean n=3.46 per antibody) VH: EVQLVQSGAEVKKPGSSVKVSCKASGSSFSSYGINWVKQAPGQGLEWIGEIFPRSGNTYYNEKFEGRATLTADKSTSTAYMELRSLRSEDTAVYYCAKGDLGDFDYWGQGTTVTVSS VL: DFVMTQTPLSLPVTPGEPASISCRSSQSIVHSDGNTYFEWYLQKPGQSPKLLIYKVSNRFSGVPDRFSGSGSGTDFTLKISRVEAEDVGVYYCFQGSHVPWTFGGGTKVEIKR	%	75

We next turn to a different binder, shown below.
Req: If you can, please state the reported Endocytosis rate (4 h), DoHH2 cells value of ADC-2 (antibody, human IgG1, kappa, V domains shown, compound A coupled to cysteines after TCEP reduction; positions not given; compound A (Malei-PEG2-vc-PAB-MMAE) coupled to cysteines after TCEP reduction; positions not given; mean n=3.68 per antibody, Antibody-drug conjugate of hAb015-10; DAR 3.68; also called hAb015-10-cys-Malei-PEG2-vc-PAB-MMAE) VH: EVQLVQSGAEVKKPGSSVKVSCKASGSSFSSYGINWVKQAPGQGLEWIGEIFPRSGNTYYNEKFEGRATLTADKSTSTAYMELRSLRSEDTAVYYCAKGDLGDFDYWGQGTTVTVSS VL: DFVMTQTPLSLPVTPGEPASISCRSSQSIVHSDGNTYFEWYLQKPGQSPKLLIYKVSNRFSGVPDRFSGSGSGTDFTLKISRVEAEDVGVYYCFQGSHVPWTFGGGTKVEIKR .
Resp: 66
